These measurements were taken from patent US20240197834A1.

Let's look at some binders and their measured In vitro activity (Relative Activity to SEQ ID NO: 1, %).
# target-system: glucagon receptor
# procedure-summary: cell-based or functional assay
Square brackets hold non-standard residues; d marks the D form. Ends that are not written are not given here. Aib = CC(C)(N)C(=O)O

# example entries with known answers
binder	data-value
Y[Aib]QGTFTSDYSKYLDSRRACDFRLWLMNT [glucagon derivative of SEQ ID NO: 18]	< 0.1%
HSQGTFTSDYSKYLDCDRAQDFVQWLMNT [glucagon derivative of SEQ ID NO: 2]	0.6%
HSQGTFTSDYSKYLDCERAQDFVQWLMNT [glucagon derivative of SEQ ID NO: 3]	6.1%
YXQGTFTSDYSKYLDSRRAQDFVQWLMNTC (aminoisobutyric acid (Aib) at position 2 (printed X)) [glucagon derivative of SEQ ID NO: 44]	75.4%
Y[Aib]QGTFTSDYSKYLDSCDADDFVVWLINT [glucagon derivative of SEQ ID NO: 10]	< 0.1%

Q: Which value of In vitro activity (Relative Activity to SEQ ID NO: 1, %) has been reported for YSQGTFTSDYSKYLDSCEADDFVQWLMNT [glucagon derivative of SEQ ID NO: 7] in the records?
Result: < 0.1%

Q: Now this one: Y[Aib]QGTFTSDYSKYLDCKRAKEFVQWLMNT [glucagon derivative of SEQ ID NO: 14]
Result: 18.1%
